- tested-on: Jak2 (a.a. 828-1132) (Homo sapiens (Human), UniProt O60674)
- Sequence (O60674 828-1132): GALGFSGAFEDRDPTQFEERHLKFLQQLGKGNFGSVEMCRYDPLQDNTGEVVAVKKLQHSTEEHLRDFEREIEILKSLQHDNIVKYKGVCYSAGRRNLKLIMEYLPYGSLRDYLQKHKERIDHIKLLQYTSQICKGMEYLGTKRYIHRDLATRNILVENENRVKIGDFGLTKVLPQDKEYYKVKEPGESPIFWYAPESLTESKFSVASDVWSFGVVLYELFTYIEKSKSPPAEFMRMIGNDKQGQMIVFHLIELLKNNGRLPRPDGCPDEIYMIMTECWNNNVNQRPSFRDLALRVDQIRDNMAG
- method-summary: In vitro JAK kinase assay (HTRF, phosphorylation of a biotinylated peptide), JAK2
- Assay type: biochemical
- test-context: measured at 1 mM ATP
property-label: IC50

q: Record request: IC50 value, item N#CCC1(n2cc(-c3ncnc4[nH]ccc34)cn2)CN(C2CCN(Cc3cc(Br)nc(Br)c3)CC2)C1 [Example 225]
a: 0.01 to 0.05 µM

q: Which IC50 reading was recorded for the molecule N#CCC1(n2cc(-c3ncnc4[nH]ccc34)cn2)CN(C2CC3CCC(C2)N3C(=O)c2cc(F)cc(C#N)c2)C1 (stereo not drawn) [Example 138] ?
a: ≤ 0.01 µM

q: What does the record list as IC50 for N#CCC1(n2cc(-c3ncnc4[nH]ccc34)cn2)CN(C2CCN(Cc3c(Cl)cncc3Cl)CC2)C1 [Example 237] ?
a: 0.01 to 0.05 µM

* * *

Would you mind telling me the reported IC50 Ratio JAK2/JAK1 of each entry?
- tested-on: human JAK1 (a.a. 837-1142)
- method-summary: In vitro JAK kinase assay (HTRF, phosphorylation of a biotinylated peptide), JAK1
- Assay type: biochemical
- test-context: ratio of JAK2 IC50 to JAK1 IC50, measured at 1 mM ATP
Give a plain numeric answer without units written out.

q: Which IC50 Ratio JAK2/JAK1 reading was recorded for the compound N#CCC1(n2cc(-c3ccnc4[nH]ccc34)cn2)CN(C2CCN(C(=O)c3ccc(C#N)cc3F)CC2)C1 [Example 295] ?
a: 5.1

q: Bench note: what IC50 Ratio JAK2/JAK1 did N#CCC1(n2cc(-c3c(C#N)cnc4[nH]ccc34)cn2)CN(C2CCN(C(=O)c3cc(C#N)ccc3C#N)CC2)C1 [Example 337] show?
a: 6.0

q: What does the data say about its IC50 Ratio JAK2/JAK1? Entry: N#CCC1(n2cc(-c3ncnc4[nH]ccc34)cn2)CN(C2CC3CCC(C2)N3C(=O)c2cc(F)cc(C#N)c2)C1 (stereo not drawn) [Example 138]
a: 13.9

* * *

pIC50: −log10 of the molar value.
So I've got a bunch of molecules here, and I need their pIC50 values.

q: Test system human JAK1 (a.a. 837-1142) (Homo sapiens); read-out pIC50; what value for N#CCC1(n2cc(-c3c(C#N)cnc4[nH]ccc34)cn2)CN(C2CCN(C(=O)c3c(F)cc(C#N)cc3F)CC2)C1 [Example 340] ?
a: 7.52 to 7.70

q: Recorded pIC50 for N#CCC1(n2cc(-c3ncnc4[nH]ccc34)cn2)CN(C2CC3CCC(C2)N3C(=O)c2ccc(C(F)(F)F)nc2)C1 (centres unmarked) [Example 143] with human JAK1 (a.a. 837-1142) (Homo sapiens), please?
a: 7.70 to 8.30

q: GET /values?readout=pIC50&system=human JAK1 (a.a. 837-1142) (Homo sapiens)&item= Cc1ncccc1NC(=O)N1CCC(N2CC(CC#N)(n3cc(-c4ncnc5[nH]ccc45)cn3)C2)CC1 [Example 198]
a: ≥ 8.30

q: Please tell me: pIC50 of N#CCC1(n2cc(-c3ccnc4[nH]ccc34)cn2)CN(C2CCN(C(=O)Nc3ccc(C#N)cc3C(F)(F)F)CC2)C1 [Example 311] , system human JAK1 (a.a. 837-1142) (Homo sapiens)?
a: 7.70 to 8.30

q: Field: pIC50 (human JAK1 (a.a. 837-1142) (Homo sapiens)). Entry: N#CCC1(n2cc(-c3ncnc4[nH]ccc34)cn2)CN(C2CCN(S(=O)(=O)c3ccccc3C#N)CC2)C1 [Example 247]
a: ≥ 8.30

q: Quick check: pIC50 on human JAK1 (a.a. 837-1142) (Homo sapiens), item N#CCC1(n2cc(-c3ncnc4[nH]ccc34)cn2)CN(C2CCN(C(=O)Nc3cccc(C(F)(F)F)c3)CC2)C1 [Example 166] ?
a: ≥ 8.30

q: What pIC50 appears in the records for this molecule with human JAK1 (a.a. 837-1142) (Homo sapiens)? N#CCC1(n2cc(-c3c(F)cnc4[nH]ccc34)cn2)CN(C2CCN(C(=O)c3ccc(F)cn3)CC2)C1 [Example 319]
a: ≥ 8.30

q: What pIC50 appears in the records for this molecule with human JAK1 (a.a. 837-1142) (Homo sapiens)? N#CCC1(n2cc(-c3ncnc4[nH]ccc34)cn2)CN(C2CCN(C(=O)Nc3cnccc3C(F)(F)F)CC2)C1 [Example 165]
a: 7.70 to 8.30
